Where do these numbers come from? They come from patent EP4700027A1.

Below: a set of entries, each annotated with reported Purity (%).
method_summary: Influencing factor stability study on crystal forms (light, high temperature, high humidity, 30 days)
Assay type: physicochemical
study_conditions: 60 °C, 30 days
experimental_readout: Purity (%)

compound="C=CC(=O)N1CCN2C(=O)c3cc(F)c(-c4ccc(F)c5sc(N)c(C#N)c45)c4c(Cl)nn(c34)CC[C@H]2C1 [crystal form G]" recorded_measurement=98.1
compound="C=CC(=O)N1CCN2C(=O)c3cc(F)c(-c4ccc(F)c5sc(N)c(C#N)c45)c4c(Cl)nn(c34)CC[C@H]2C1 [crystal form M]" recorded_measurement=99.0
compound="C=CC(=O)N1CCN2C(=O)c3cc(F)c(-c4ccc(F)c5sc(N)c(C#N)c45)c4c(Cl)nn(c34)CC[C@H]2C1 [crystal form N]" recorded_measurement=98.9
compound="C=CC(=O)N1CCN2C(=O)c3cc(F)c(-c4ccc(F)c5sc(N)c(C#N)c45)c4c(Cl)nn(c34)CC[C@H]2C1 [crystal form F]" recorded_measurement=97.3

* * *

method_summary: Influencing factor stability study on crystal forms (light, high temperature, high humidity, 30 days)
Assay type: physicochemical
study_conditions: 75% RH, 7 days
experimental_readout: Purity (%)

compound="C=CC(=O)N1CCN2C(=O)c3cc(F)c(-c4ccc(F)c5sc(N)c(C#N)c45)c4c(Cl)nn(c34)CC[C@H]2C1 [crystal form M]" experimental_readout="Purity (%)" recorded_measurement=99.2%
compound="C=CC(=O)N1CCN2C(=O)c3cc(F)c(-c4ccc(F)c5sc(N)c(C#N)c45)c4c(Cl)nn(c34)CC[C@H]2C1 [crystal form G]" experimental_readout="Purity (%)" recorded_measurement=98.5%
compound="C=CC(=O)N1CCN2C(=O)c3cc(F)c(-c4ccc(F)c5sc(N)c(C#N)c45)c4c(Cl)nn(c34)CC[C@H]2C1 [crystal form H]" experimental_readout="Purity (%)" recorded_measurement=98.4%
compound="C=CC(=O)N1CCN2C(=O)c3cc(F)c(-c4ccc(F)c5sc(N)c(C#N)c45)c4c(Cl)nn(c34)CC[C@H]2C1 [crystal form L]" experimental_readout="Purity (%)" recorded_measurement=99.1%
compound="C=CC(=O)N1CCN2C(=O)c3cc(F)c(-c4ccc(F)c5sc(N)c(C#N)c45)c4c(Cl)nn(c34)CC[C@H]2C1 [crystal form N]" experimental_readout="Purity (%)" recorded_measurement=99.2%

* * *

method_summary: Influencing factor stability study on crystal forms (light, high temperature, high humidity, 30 days)
Type: physicochemical
study_conditions: 40 °C, 30 days
experimental_readout: Crystal form

molecule="C=CC(=O)N1CCN2C(=O)c3cc(F)c(-c4ccc(F)c5sc(N)c(C#N)c45)c4c(Cl)nn(c34)CC[C@H]2C1 [crystal form L]" experimental_readout="Crystal form" recorded_measurement="Did not change"
molecule="C=CC(=O)N1CCN2C(=O)c3cc(F)c(-c4ccc(F)c5sc(N)c(C#N)c45)c4c(Cl)nn(c34)CC[C@H]2C1 [crystal form H]" experimental_readout="Crystal form" recorded_measurement="Did not change"
molecule="C=CC(=O)N1CCN2C(=O)c3cc(F)c(-c4ccc(F)c5sc(N)c(C#N)c45)c4c(Cl)nn(c34)CC[C@H]2C1 [crystal form F]" experimental_readout="Crystal form" recorded_measurement="Did not change"
molecule="C=CC(=O)N1CCN2C(=O)c3cc(F)c(-c4ccc(F)c5sc(N)c(C#N)c45)c4c(Cl)nn(c34)CC[C@H]2C1 [crystal form G]" experimental_readout="Crystal form" recorded_measurement="Did not change"
molecule="C=CC(=O)N1CCN2C(=O)c3cc(F)c(-c4ccc(F)c5sc(N)c(C#N)c45)c4c(Cl)nn(c34)CC[C@H]2C1 [crystal form M]" experimental_readout="Crystal form" recorded_measurement="Did not change"
molecule="C=CC(=O)N1CCN2C(=O)c3cc(F)c(-c4ccc(F)c5sc(N)c(C#N)c45)c4c(Cl)nn(c34)CC[C@H]2C1 [crystal form C]" experimental_readout="Crystal form" recorded_measurement="Did not change"
